Data origin: the supplement of paper PMC6755084

Measured fraction ligated, listed per entry for reference.
B1: minF1; the commonest letter at each place (parent)
chain: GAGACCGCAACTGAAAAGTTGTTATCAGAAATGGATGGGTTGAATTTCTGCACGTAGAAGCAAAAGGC

variants of: B1; assay: fraction ligated after 30 min (ligated reads / total reads); higher = more ligase activity; conditions: with F1*subA RNA substrate (template-directed ligation), 42 °C
Answer with the value's number alone.

Answered cases to consult:
>>> print(df.to_string())
                             query_sequence  recorded_measurement
0  GAGACCGCAACTGAAAAGTTGTTAACAGAAATGGAGGGGTTGAATTTCTGCACGTAGAAGCAAAAGGC                0.0106
1  GAGACCGCAACTGAAAAGTTGTTATCAGAAATTGATGGGTTGACTTTCTGCACGTAGAAGCAAAAGGC                 0.149
2  GAGACCGCAACTGAAAAGTTGTTATCAGAAAGGGACGGGTTGAATTTCTGCACGTAGAAGCAAAAGGC               0.00404
3  GAGACCGCAACTGAAAAGTTGTTATCGGAAATGGATAGGTTGAATTTCTGCACGTAGAAGCAAAAGGC               0.00716
4  GAGACCGCAACTGAAAAGTTGTTATCAGAACTGGATGGGTTTAATTTCTGCACGTAGAAGCAAAAGGC                0.0885
5  GAGACCGCAACTGAAAAGTTGTTGTCAGAAATGAATGGGTTGAATTTCTGCACGTAGAAGCAAAAGGC               0.00498
6  GAGACCGCAACTGAAAAGTTGTTATCAGAAATGGATGGGTTACGTTTCTGCACGTAGAAGCAAAAGGC               0.00203
7  GAGACCGCAACTGAAAAGTTGTTATCAGCAATGGATGGGTTTAATTTCTGCACGTAGAAGCAAAAGGC                0.0826

Looking up GAGACCGCAACTGAAAAGTTGTTATCAGAGATGGATGGGTTCAATTTCTGCACGTAGAAGCAAAAGGC , I see its fraction ligated listed as 0.0189

Lab note: GAGACCGCAACTGAAAAGTTGTTAGCAGAAATGGATTGGTTGAATTTCTGCACGTAGAAGCAAAAGGC gave fraction ligated of 0.00311

Please fill in: fraction ligated reported for GAGACCGCAACTGAAAAGTTGTTATCAGAAATGGATTGGTTTAATTTCTGCACGTAGAAGCAAAAGGC = 0.00146

Input GAGACCGCAACTGAAAAGTTGTTATCGGAGATGGATGGGTTGAATTTCTGCACGTAGAAGCAAAAGGC . Output fraction ligated: 0.824

Sure, the documented fraction ligated for GAGACCGCAACTGAAAAGTTGTTATCAGAATTGCATGGGTTGAATTTCTGCACGTAGAAGCAAAAGGC is 0.00659
